- Test system: MDA-MB-453
- methodNotes: Growth inhibition against MDA-453 breast cancer cells
- Format: functional, cell-based
- experimentalSetup: Homo sapiens
Attribute: IC50
The answer is to be given in µM; state only the numeric part.

Q. Request: IC50, test system MDA-MB-453, entry NC(=O)C[C@@H]1NC(=O)C2(CCCCC2)NC(=O)[C@@H](CC(=O)O)[C@@H](c2ccc(CP(=O)(O)O)cc2)/C=C/C[C@@H](CC2=c3ccccc3=CCC2)CNC1=O
A. 0.8

// switching to the query molecule
Q. Request: IC50, test system MDA-MB-453, entry CC1(C)NC(=O)[C@@H](CC(=O)O)[C@@H](c2ccc(CP(=O)(O)O)cc2)/C=C/C[C@@H](CC2=c3ccccc3=CCC2)CNC(=O)[C@H](CC(N)=O)NC1=O
A. 8
